system: 777334-354-R2-J4-PDC tumor spheroids with HUVEC/MSC, viability; experiment: Anticancer human tumor 777334-354-R2-J4-PDC patient-derived pancreatic adenocarcinoma cell line growth inhibition [GQUAD]; conditions: second compound 3.16 µM; first compound 0.000999 µM; hits give low values
Observable: viability, T/C (%)

[
  {
    "Compound": "Cc1[nH]c2ccccc2c1CCNCc1ccc(/C=C/C(=O)NO)cc1 + Cc1[nH]c2ccc(F)cc2c1-c1nc2c3cccnc3c3ncccc3c2[nH]1",
    "Observable": "viability, T/C",
    "Observed": 46
  },
  {
    "Compound": "Cn1ncnc1[C@H]1c2n[nH]c(=O)c3cc(F)cc(c23)N[C@@H]1c1ccc(F)cc1 + CN(C)c1ccc(Nc2c3ccc(NC(=O)CCN4CCCC4)cc3nc3cc(NC(=O)CCN4CCCC4)ccc23)cc1",
    "Observable": "viability, T/C",
    "Observed": 73.5
  },
  {
    "Compound": "Cc1[nH]c2ccccc2c1CCNCc1ccc(/C=C/C(=O)NO)cc1 + Cc1cnc(CNC(=O)c2c(=O)c3ccc(N4CCCN(C)CC4)nc3n3c2sc2ccccc23)cn1",
    "Observable": "viability, T/C",
    "Observed": 58
  },
  {
    "Compound": "CC[C@@]1(O)C(=O)OCc2c1cc1n(c2=O)Cc2cc3c(CN(C)C)c(O)ccc3nc2-1 + Cc1[nH]c2ccc(F)cc2c1-c1nc2c3cccnc3c3ncccc3c2[nH]1",
    "Observable": "viability, T/C",
    "Observed": 34.2
  },
  {
    "Compound": "Cc1[nH]c2ccccc2c1CCNCc1ccc(/C=C/C(=O)NO)cc1 + CN(C)c1ccc(Nc2c3ccc(NC(=O)CCN4CCCC4)cc3nc3cc(NC(=O)CCN4CCCC4)ccc23)cc1",
    "Observable": "viability, T/C",
    "Observed": 90.6
  },
  {
    "Compound": "CC[C@@]1(O)C(=O)OCc2c1cc1n(c2=O)Cc2cc3c(CN(C)C)c(O)ccc3nc2-1 + CN(C)c1ccc(Nc2c3ccc(NC(=O)CCN4CCCC4)cc3nc3cc(NC(=O)CCN4CCCC4)ccc23)cc1",
    "Observable": "viability, T/C",
    "Observed": 83.7
  },
  {
    "Compound": "Cn1ncnc1[C@H]1c2n[nH]c(=O)c3cc(F)cc(c23)N[C@@H]1c1ccc(F)cc1 + Cc1[nH]c2ccc(F)cc2c1-c1nc2c3cccnc3c3ncccc3c2[nH]1",
    "Observable": "viability, T/C",
    "Observed": 33.3
  },
  {
    "Compound": "CCc1c2c(nc3ccc(O)cc13)-c1cc3c(c(=O)n1C2)COC(=O)[C@]3(O)CC + Cc1[nH]c2ccc(F)cc2c1-c1nc2c3cccnc3c3ncccc3c2[nH]1",
    "Observable": "viability, T/C",
    "Observed": 34.4
  },
  {
    "Compound": "CC[C@@]1(O)C(=O)OCc2c1cc1n(c2=O)Cc2cc3c(CN(C)C)c(O)ccc3nc2-1 + Cc1cnc(CNC(=O)c2c(=O)c3ccc(N4CCCN(C)CC4)nc3n3c2sc2ccccc23)cn1",
    "Observable": "viability, T/C",
    "Observed": 56.8
  }
]

* * *

Test system: 777334-354-R2-J4-PDC tumor spheroids with HUVEC/MSC, viability
Experiment: Anticancer human tumor 777334-354-R2-J4-PDC cell line growth inhibition [GQUAD];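 note: spheroids exposed to compounds for 7 days before readout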
Settings: second compound 0.316 µM; first compound 0.0316 µM; hits give low values
Text: DNA G-quadruplex Stabilizer Agents in Combinations in Complex Spheroids A high-throughput screen of multi-cell type tumor spheroids was designed to identify active combinations of DNA G-quadruplex stabilizer agents and targeted small molecules. […] Compounds. […] If the clinical Cmax for an agent had not been determined, the highest concentration tested was 10 microM. […]
Observable: viability, T/C (%)

[
  {
    "Compound": "C=CC(=O)N1CCN(c2nc(=O)n(-c3c(C)ccnc3C(C)C)c3nc(-c4c(O)cccc4F)c(F)cc23)C(C)C1 (stereo not given) + CN(C)c1ccc(Nc2c3ccc(NC(=O)CCN4CCCC4)cc3nc3cc(NC(=O)CCN4CCCC4)ccc23)cc1",
    "Observed": 98.2
  },
  {
    "Compound": "O=C(NO)c1cnc(N2CCN(S(=O)(=O)c3ccc4ccccc4c3)CC2)nc1 + Cc1[nH]c2ccc(F)cc2c1-c1nc2c3cccnc3c3ncccc3c2[nH]1",
    "Observed": 99.2
  },
  {
    "Compound": "CC(C)(O)C1CCC(Nc2ccc3ncc(-c4cccc(C(F)(F)F)c4)n3n2)CC1 (stereo not given) + Cc1[nH]c2ccc(F)cc2c1-c1nc2c3cccnc3c3ncccc3c2[nH]1",
    "Observed": 96.7
  },
  {
    "Compound": "CC1COCCN1c1cc(C2(S(C)(=N)=O)CC2)nc(-c2ccnc3[nH]ccc23)n1 (stereo not given) + CN(C)c1ccc(Nc2c3ccc(NC(=O)CCN4CCCC4)cc3nc3cc(NC(=O)CCN4CCCC4)ccc23)cc1",
    "Observed": 92.5
  },
  {
    "Compound": "CCCS(=O)(=O)Nc1ccc(F)c(C(=O)c2c[nH]c3ncc(-c4ccc(Cl)cc4)cc23)c1F + CN(C)c1ccc(Nc2c3ccc(NC(=O)CCN4CCCC4)cc3nc3cc(NC(=O)CCN4CCCC4)ccc23)cc1",
    "Observed": 101
  }
]
